meta.source: ChEMBL document CHEMBL6134793

Test: Hemolytic activity in human erythrocytes at 128 ug/ml measured after 1 hr by absorbance based assay relative to control
Format: toxicity, cell-based, Erythrocyte
Details: at 128 µg/mL, read-out: Activity

# Molecular string, hemolysis at 1 h, 128 ug/ml, %
rows = [
    ("CC[C@H](NC(=O)[C@@H](NC(C)=O)[C@@H](C)CC)C(=O)N[C@@H](CC(C)C)C(=O)N[C@H](CCCN)C(=O)N[C@H](C(=O)N[C@H](C(=O)N[C@H](C(=O)N[C@H](CCCCN)C(=O)N[C@H](C(=O)N[C@H](C(=O)N[C@@H](CCCCN)C(=O)N[C@H](Cc1ccc(O)cc1)C(=O)N[C@@H](CC(C)C)C(=O)N[C@H](CO)C(C)C)C(C)C)C(C)C)C(C)C)[C@@H](C)CC)[C@@H](C)CC", 23.3),
    ("C/C=C(/NC(=O)[C@@H](O)[C@@H](C)CC)C(=O)N[C@@H](CC(C)C)C(=O)N[C@H](CCCN)C(=O)N[C@H](C(=O)N[C@H](C(=O)N[C@H](C(=O)N[C@H](CCCCN)C(=O)N[C@H](C(=O)N[C@H](C(=O)N[C@@H](CCCCN)C(=O)N[C@H](Cc1ccc(O)cc1)C(=O)N[C@@H](CC(C)C)C(=O)N[C@H](C(N)=O)C(C)C)C(C)C)C(C)C)C(C)C)[C@@H](C)CC)[C@@H](C)CC", 11.8),
    ("CC[C@H](NC(=O)[C@@H](O)[C@@H](C)CC)C(=O)N[C@@H](CC(C)C)C(=O)N[C@H](CCCN)C(=O)N[C@H](C(=O)N[C@H](C(=O)N[C@H](C(=O)N[C@H](CCCCN)C(=O)N[C@H](C(=O)N[C@H](C(=O)N[C@@H](CCCCN)C(=O)N[C@H](Cc1ccc(O)cc1)C(=O)N[C@@H](CC(C)C)C(=O)N[C@H](CO)C(C)C)C(C)C)C(C)C)C(C)C)[C@@H](C)CC)[C@@H](C)CC", 15.5),
    ("CC[C@H](NC(=O)[C@@H](NC(C)=O)[C@@H](C)CC)C(=O)N[C@@H](CC(C)C)C(=O)N[C@H](CCCN)C(=O)N[C@H](C(=O)N[C@H](C(=O)N[C@H](C(=O)N[C@H](CCCCN)C(=O)N[C@H](C(=O)N[C@H](C(=O)N[C@@H](CCCCN)C(=O)N[C@H](Cc1ccc(O)cc1)C(=O)N[C@@H](CC(C)C)C(=O)N[C@H](C(N)=O)C(C)C)C(C)C)C(C)C)C(C)C)[C@@H](C)CC)[C@@H](C)CC", 23.3),
    ("C/C=C(/NC(=O)[C@@H](O)[C@@H](C)CC)C(=O)N[C@@H](CC(C)C)C(=O)N[C@H](CCCN)C(=O)N[C@H](C(=O)N[C@H](C(=O)N[C@H](C(=O)N[C@H](CCCCN)C(=O)N[C@H](C(=O)N[C@H](C(=O)N[C@@H](CCCCN)C(=O)N[C@H](Cc1ccc(O)cc1)C(=O)N[C@@H](CC(C)C)C(=O)N[C@H](CO)C(C)C)C(C)C)C(C)C)C(C)C)[C@@H](C)CC)[C@@H](C)CC", 9.6),
]

* * *

Activity: recorded values
Test system: Staphylococcus aureus
Experiment: Antimicrobial activity against Staphylococcus aureus ATCC 6538 assessed as diameter of growth inhibition at 128 ug/ml by radial diffusion assay
Assay type: functional
Details: dose 128 µg/ml
Value type: Activity (mm)

# Molecular string, Target desc, Value type, Measurement
rows = [
    ("CC[C@H](C)[C@H](O)C(=O)N[C@H](C(=O)N[C@@H](CC(C)C)C(=O)N[C@H](CCCN)C(=O)N[C@H](C(=O)N[C@H](C(=O)N[C@H](C(=O)N[C@H](CCCCN)C(=O)N[C@H](C(=O)N[C@H](C(=O)N[C@@H](CCCCN)C(=O)N[C@H](Cc1ccc(O)cc1)C(=O)N[C@@H](CC(C)C)C(=O)N[C@H](CO)C(C)C)C(C)C)C(C)C)C(C)C)[C@@H](C)CC)[C@@H](C)CC)[C@@H](C)O", "Staphylococcus aureus", "Activity", 11),
    ("CC[C@H](C)[C@H](O)C(=O)N[C@@H](C)C(=O)N[C@@H](CC(C)C)C(=O)N[C@H](CCCN)C(=O)N[C@H](C(=O)N[C@H](C(=O)N[C@H](C(=O)N[C@H](CCCCN)C(=O)N[C@H](C(=O)N[C@H](C(=O)N[C@@H](CCCCN)C(=O)N[C@H](Cc1ccc(O)cc1)C(=O)N[C@@H](CC(C)C)C(=O)N[C@H](CO)C(C)C)C(C)C)C(C)C)C(C)C)[C@@H](C)CC)[C@@H](C)CC", "Staphylococcus aureus", "Activity", 11),
    ("CC[C@H](NC(=O)[C@@H](O)[C@@H](C)CC)C(=O)N[C@@H](CC(C)C)C(=O)N[C@H](CCCN)C(=O)N[C@H](C(=O)N[C@H](C(=O)N[C@H](C(=O)N[C@H](CCCCN)C(=O)N[C@H](C(=O)N[C@H](C(=O)N[C@@H](CCCCN)C(=O)N[C@H](Cc1ccc(O)cc1)C(=O)N[C@@H](CC(C)C)C(=O)N[C@H](C(N)=O)C(C)C)C(C)C)C(C)C)C(C)C)[C@@H](C)CC)[C@@H](C)CC", "Staphylococcus aureus", "Activity", 7),
    ("C/C=C(/NC(=O)[C@@H](O)[C@@H](C)CC)C(=O)N[C@@H](CC(C)C)C(=O)N[C@H](CCCN)C(=O)N[C@H](C(=O)N[C@H](C(=O)N[C@H](C(=O)N[C@H](CCCCN)C(=O)N[C@H](C(=O)N[C@H](C(=O)N[C@@H](CCCCN)C(=O)N[C@H](Cc1ccc(O)cc1)C(=O)N[C@@H](CC(C)C)C(=O)N[C@H](CO)C(C)C)C(C)C)[C@@H](C)CC)C(C)C)[C@@H](C)CC)[C@@H](C)CC", "Staphylococcus aureus", "Activity", 11),
    ("CC[C@H](NC(=O)[C@@H](NC(C)=O)[C@@H](C)CC)C(=O)N[C@@H](CC(C)C)C(=O)N[C@H](CCCN)C(=O)N[C@H](C(=O)N[C@H](C(=O)N[C@H](C(=O)N[C@H](CCCCN)C(=O)N[C@H](C(=O)N[C@H](C(=O)N[C@@H](CCCCN)C(=O)N[C@H](Cc1ccc(O)cc1)C(=O)N[C@@H](CC(C)C)C(=O)N[C@H](CO)C(C)C)C(C)C)C(C)C)C(C)C)[C@@H](C)CC)[C@@H](C)CC", "Staphylococcus aureus", "Activity", 7),
    ("C/C=C(/NC(=O)[C@@H](O)[C@@H](C)CC)C(=O)N[C@@H](CC(C)C)C(=O)N[C@H](CCCN)C(=O)N[C@H](C(=O)N[C@H](C(=O)N[C@H](C(=O)N[C@H](CCCCN)C(=O)N[C@H](C(=O)N[C@H](C(=O)N[C@@H](CCCCN)C(=O)N[C@H](Cc1ccc(O)cc1)C(=O)N[C@@H](CC(C)C)C(=O)N[C@H](CO)C(C)C)C(C)C)C(C)C)C(C)C)C(C)C)C(C)C", "Staphylococcus aureus", "Activity", 11),
    ("CC[C@H](C)[C@H](O)C(=O)N[C@@H](CO)C(=O)N[C@@H](CC(C)C)C(=O)N[C@H](CCCN)C(=O)N[C@H](C(=O)N[C@H](C(=O)N[C@H](C(=O)N[C@H](CCCCN)C(=O)N[C@H](C(=O)N[C@H](C(=O)N[C@@H](CCCCN)C(=O)N[C@H](Cc1ccc(O)cc1)C(=O)N[C@@H](CC(C)C)C(=O)N[C@H](CO)C(C)C)C(C)C)C(C)C)C(C)C)[C@@H](C)CC)[C@@H](C)CC", "Staphylococcus aureus", "Activity", 11),
    ("CC[C@H](C)[C@H](O)C(=O)N[C@H](C(=O)N[C@@H](CC(C)C)C(=O)N[C@H](CCCN)C(=O)N[C@H](C(=O)N[C@H](C(=O)N[C@H](C(=O)N[C@H](CCCCN)C(=O)N[C@H](C(=O)N[C@H](C(=O)N[C@@H](CCCCN)C(=O)N[C@H](Cc1ccc(O)cc1)C(=O)N[C@@H](CC(C)C)C(=O)N[C@H](CO)C(C)C)C(C)C)C(C)C)C(C)C)[C@@H](C)CC)[C@@H](C)CC)C(C)C", "Staphylococcus aureus", "Activity", 7),
    ("C/C=C(/NC(=O)[C@@H](O)[C@@H](C)CC)C(=O)N[C@@H](CC(C)C)C(=O)N[C@H](CCCN)C(=O)N[C@H](C(=O)N[C@H](C(=O)N[C@H](C(=O)N[C@H](CCCCN)C(=O)N[C@H](C(=O)N[C@H](C(=O)N[C@@H](CCCCN)C(=O)N[C@H](Cc1ccc(O)cc1)C(=O)N[C@@H](CC(C)C)C(=O)N[C@H](CO)C(C)C)C(C)C)C(C)C)C(C)C)C(C)C)[C@@H](C)CC", "Staphylococcus aureus", "Activity", 11),
]
